Hi there, I'd appreciate the recorded inhibition zone for every entry that follows.
Test system: Pseudomonas aeruginosa
experimental-details: Antibacterial activity against Pseudomonas aeruginosa at 50 to 100 uM after 24 hrs by well diffusion method
Type: functional
The reply should be a number in mm, with the unit left off.

## Input // map O=C(Nc1nc(Cc2nnc(SCSc3nnc(Cc4csc(NC(=O)c5ccccc5)n4)n3NC(=O)c3ccc(Cl)cc3)n2NC(=O)c2ccc(Cl)cc2)cs1)c1ccccc1 to recorded inhibition zone (system: Pseudomonas aeruginosa)
## Output 27

## Input Record lookup: for Pseudomonas aeruginosa, what inhibition zone belongs to CC(=O)Nc1nc(Cc2nnc(SCC#N)n2NC(=O)c2cccc([N+](=O)[O-])c2)cs1 ?
## Output 26

## Input Recall the recorded inhibition zone for O=C(CSc1nnc(Cc2csc(NC(=O)CCl)n2)n1NC(=O)c1ccc(Cl)cc1)NNC(=O)c1ccccc1 with Pseudomonas aeruginosa and state it.
## Output 26
